B1: peptide HD2 (from tick evasin EVA4) / CCL1 (biotinylated, synthetic) (parent)
chain 1: EEDDYTAYAPLTCYFT
chain 2: KSMQVPFSRCCFSFAEQEIPLRAILCYRNTSSICSNEGLIFKLKRGKEACALDTVGWVQRHRKMLRHCPSKRK

- Variants of: B1
- CONDITION: with CCL1 (biotinylated, synthetic); scale: log2
READOUT_LABEL: enrichment
# print the numeric value only

Identify measured enrichment corresponding to chain 1 Y8K
-5.3

Tell me measured enrichment for chain 1 Y5Q please.
-4.59
